Values compiled from patent US12479849B2.

- STUDY_TARGET: EGFR TMLRCS (Homo sapiens, UniProt P00533, C797S/L858R/T790M)
- Sequence (P00533 25-1210 T790M/C797S/L858R): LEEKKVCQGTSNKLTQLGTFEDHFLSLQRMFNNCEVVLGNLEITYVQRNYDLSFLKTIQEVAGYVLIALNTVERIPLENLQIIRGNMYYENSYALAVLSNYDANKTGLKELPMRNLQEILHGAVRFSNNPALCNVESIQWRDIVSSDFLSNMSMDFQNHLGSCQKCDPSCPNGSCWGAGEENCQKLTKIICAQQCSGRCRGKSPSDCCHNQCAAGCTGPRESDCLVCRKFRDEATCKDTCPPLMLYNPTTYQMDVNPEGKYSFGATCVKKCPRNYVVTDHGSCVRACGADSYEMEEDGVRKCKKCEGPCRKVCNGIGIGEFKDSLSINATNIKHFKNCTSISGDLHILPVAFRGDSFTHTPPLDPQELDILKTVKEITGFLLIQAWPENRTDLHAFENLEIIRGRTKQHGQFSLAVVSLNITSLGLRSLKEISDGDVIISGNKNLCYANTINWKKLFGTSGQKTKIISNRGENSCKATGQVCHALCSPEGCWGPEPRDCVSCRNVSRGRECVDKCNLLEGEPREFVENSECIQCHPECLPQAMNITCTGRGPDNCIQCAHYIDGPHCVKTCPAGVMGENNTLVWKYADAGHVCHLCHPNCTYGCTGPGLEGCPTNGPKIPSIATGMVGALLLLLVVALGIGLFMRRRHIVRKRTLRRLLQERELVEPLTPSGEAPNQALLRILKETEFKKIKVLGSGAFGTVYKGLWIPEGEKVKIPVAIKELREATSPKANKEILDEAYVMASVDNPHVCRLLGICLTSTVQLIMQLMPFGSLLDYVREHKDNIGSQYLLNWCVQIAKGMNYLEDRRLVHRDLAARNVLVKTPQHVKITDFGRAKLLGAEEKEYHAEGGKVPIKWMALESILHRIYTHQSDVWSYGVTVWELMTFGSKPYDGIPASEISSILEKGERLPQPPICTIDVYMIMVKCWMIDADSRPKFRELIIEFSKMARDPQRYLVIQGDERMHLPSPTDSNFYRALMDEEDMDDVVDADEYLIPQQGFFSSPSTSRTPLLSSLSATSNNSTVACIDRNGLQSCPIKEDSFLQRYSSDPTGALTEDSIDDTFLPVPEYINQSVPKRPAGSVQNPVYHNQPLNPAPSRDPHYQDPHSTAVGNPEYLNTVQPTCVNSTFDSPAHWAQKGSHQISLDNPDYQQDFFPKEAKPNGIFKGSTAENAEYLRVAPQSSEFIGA
- TEST_NAME: HTRF Phospho EGFR TMLRCS Assay (Cellular)
- RUN_PARAMETERS: BaF3-TMLRCS cell line, 4 hours incubation, Phospho-EGFR HTRF readout
pIC50: −log10 of the molar value.
ASSAY_ENDPOINT: pIC50

[[record]]
compound = "CCN1C[C@H]2CC(c3ccc(-c4cc(Cl)c5cn(C(C(=O)Nc6nccs6)c6ncn7c6C[C@@H](F)C7)nc5c4Cl)cc3)C[C@H]2C1 (stereo partly drawn) [Example 43]"
assay_endpoint = "pIC50"
experimental_value = 7.96

[[record]]
compound = "O=C(Nc1nccs1)C(c1ncn2c1C[C@@H](F)C2)n1cc2c(Cl)cc(-c3ccc(N4CCN5CCC4C5)cc3)c(Cl)c2n1 (mixture of isomers) [Example 72]"
assay_endpoint = "pIC50"
experimental_value = 8.30

[[record]]
compound = "Cc1cc(-c2ccc(C3CCN(CC(C)F)CC3)cc2)c(Cl)c2nn(C(C(=O)Nc3nccs3)c3ncn4c3C[C@@H](F)C4)cc12 (mixture of isomers) [Example 131]"
assay_endpoint = "pIC50"
experimental_value = 6.72

[[record]]
compound = "O=C(Nc1nccs1)C(c1ncn2c1C[C@@H](F)C2)n1cc2c(Cl)cc(-c3ccc(N4CCN5C[C@H](O)C[C@H]5C4)cc3)c(Cl)c2n1 (stereo partly drawn) [Example 93]"
assay_endpoint = "pIC50"
experimental_value = 8.22

[[record]]
compound = "CN(C)Cc1ccc(-c2cc(Cl)c3cn(C(C(=O)Nc4nccs4)c4ncn5c4C[C@@H](F)C5)nc3c2Cl)cc1 (mixture of isomers) [Example 48]"
assay_endpoint = "pIC50"
experimental_value = 8.10

[[record]]
compound = "CN(CCN1CC(CO)C1)c1ccc(-c2cc(Cl)c3cn(C(C(=O)Nc4nccs4)c4ncn5c4C[C@@H](F)C5)nc3c2Cl)cc1 (stereo partly drawn) [Example 89]"
assay_endpoint = "pIC50"
experimental_value = 8.00

[[record]]
compound = "CC(O)C1CN(CCc2ccc(-c3cc(Cl)c4cn(C(C(=O)Nc5nccs5)c5ncn6c5C[C@@H](F)C6)nc4c3Cl)cc2)C1 (mixture of isomers) [Example 100]"
assay_endpoint = "pIC50"
experimental_value = 7.92

[[record]]
compound = "CCc1c(-c2ccc(N3CCOCC3)cc2)cc(Cl)c2cn(C(C(=O)Nc3nccs3)c3ncn4c3C[C@@H](F)C4)nc12 (stereo partly drawn) [Example 125]"
assay_endpoint = "pIC50"
experimental_value = 7.96

[[record]]
compound = "CC1(O)CCN(Cc2ccc(-c3cc(Cl)c4cn(C(C(=O)Nc5nccs5)c5ncn6c5C[C@@H](F)C6)nc4c3Cl)cc2)CC1 (mixture of isomers) [Example 97]"
assay_endpoint = "pIC50"
experimental_value = 8.30

[[record]]
compound = "CN(CCN1CCC(CO)CC1)c1ccc(-c2cc(Cl)c3cn(C(C(=O)Nc4nccs4)c4ncn5c4C[C@@H](F)C5)nc3c2Cl)cc1 (stereo partly drawn) [Example 79]"
assay_endpoint = "pIC50"
experimental_value = 8.15

[[record]]
compound = "O=C(Nc1nccs1)C(c1ncn2c1C[C@@H](F)C2)n1cc2c(Cl)cc(-c3ccc(N4CCN(CCO)CC4)cc3)c(Cl)c2n1 (mixture of isomers) [Example 61]"
assay_endpoint = "pIC50"
experimental_value = 8.52

[[record]]
compound = "O=C(Nc1nccs1)C(c1ncn2c1C[C@@H](F)C2)n1cc2c(Cl)cc(-c3ccc(CCN4CCC(CO)CC4)cc3)c(Cl)c2n1 (mixture of isomers) [Example 51]"
assay_endpoint = "pIC50"
experimental_value = 8.00

[[record]]
compound = "COC1CCN(Cc2ccc(-c3cc(Cl)c4cn(C(C(=O)Nc5nccs5)c5ncn6c5C[C@@H](F)C6)nc4c3Cl)cc2)C1 (mixture of isomers) [Example 98]"
assay_endpoint = "pIC50"
experimental_value = 8.22

[[record]]
compound = "O=C(Nc1nccs1)C(c1ncn2c1C[C@@H](F)C2)n1cc2c(Cl)cc(-c3ccc(N4CCC(CN5CCC(O)C5)CC4)cc3)c(Cl)c2n1 (mixture of isomers) [Example 74]"
assay_endpoint = "pIC50"
experimental_value = 7.92

[[record]]
compound = "CN(C)Cc1ccc(-c2cc(Cl)c3cn(C(C(=O)Nc4nccs4)c4ncn5c4C[C@@H](F)C5)nc3c2Cl)cc1F (mixture of isomers) [Example 49]"
assay_endpoint = "pIC50"
experimental_value = 8.10

[[record]]
compound = "CN(C)CCc1ccc(-c2cc(Cl)c3cn(C(C(=O)Nc4nccs4)c4ncn5c4C[C@@H](F)C5)nc3c2Cl)cc1 (stereo partly drawn) [Example 35]"
assay_endpoint = "pIC50"
experimental_value = 8.22

[[record]]
compound = "O=C(Nc1nccs1)C(c1ncn2c1C[C@@H](F)C2)n1cc2c(Cl)cc(-c3ccc(CN4CCC5(CC4)CC(O)C5)cc3)c(Cl)c2n1 (mixture of isomers) [Example 91]"
assay_endpoint = "pIC50"
experimental_value = 8.10

[[record]]
compound = "O=C(Nc1nccs1)C(c1ncn2c1C[C@@H](F)C2)n1cc2c(Cl)cc(-c3ccc(C4CCN(C5CC(O)C5)CC4)cc3)c(Cl)c2n1 (mixture of isomers) [Example 87]"
assay_endpoint = "pIC50"
experimental_value = 8.05

[[record]]
compound = "CC(F)CN1CCC(c2ccc(-c3cc(Cl)c4cn(C(C(=O)Nc5nccs5)c5ncn6c5C[C@@H](F)C6)nc4c3Cl)cc2)CC1 (stereo partly drawn) [Example 44]"
assay_endpoint = "pIC50"
experimental_value = 7.89

[[record]]
compound = "CCN1CC[C@H](c2ccc(-c3cc(Cl)c4cn(C(C(=O)Nc5nccs5)c5ncn6c5C[C@@H](F)C6)nc4c3Cl)cc2)[C@@H](F)C1 (mixture of isomers) [Example 32]"
assay_endpoint = "pIC50"
experimental_value = 8.40

[[record]]
compound = "Cc1cc(-c2ccc(N3CCOCC3)cc2)c(C)c2nn(C(C(=O)Nc3nccs3)c3ncn4c3C[C@@H](F)C4)cc12 (stereo partly drawn) [Example 118]"
assay_endpoint = "pIC50"
experimental_value = 8.15

[[record]]
compound = "O=C(Nc1nccs1)C(c1ncn2c1C[C@@H](F)C2)n1cc2c(Cl)cc(-c3ccc(N4CC(CN5CCC(CO)CC5)C4)cc3)c(Cl)c2n1 (mixture of isomers) [Example 59]"
assay_endpoint = "pIC50"
experimental_value = 8.30

[[record]]
compound = "O=C(Nc1nccs1)C(c1ncn2c1C[C@@H](F)C2)n1cc2c(Cl)cc(-c3ccc(CN4CCC(F)(CO)CC4)cc3)c(Cl)c2n1 (stereo partly drawn) [Example 65]"
assay_endpoint = "pIC50"
experimental_value = 8.40

[[record]]
compound = "CN(C)CCN(C)c1ccc(-c2cc(Cl)c3cn(C(C(=O)Nc4nccs4)c4ncn5c4C[C@@H](F)C5)nc3c2Cl)cc1 (mixture of isomers) [Example 41]"
assay_endpoint = "pIC50"
experimental_value = 8.00

